# systemName: human recombinant H-PGDS (Homo sapiens, UniProt O60760)
# Sequence (O60760 whole entry): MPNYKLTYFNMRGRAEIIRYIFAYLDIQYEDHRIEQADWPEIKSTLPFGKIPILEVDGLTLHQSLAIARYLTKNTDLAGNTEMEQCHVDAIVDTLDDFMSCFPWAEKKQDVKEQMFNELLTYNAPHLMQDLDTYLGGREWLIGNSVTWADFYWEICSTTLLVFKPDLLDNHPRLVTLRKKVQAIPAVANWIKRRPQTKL
# assayProtocol: Fluorescence intensity h-PGDS TBA enzyme assay
# Type: biochemical
# setupConditions: Examples up to 622 (and 3a, 3b)
readoutType: IC50 (nM)

(a) CCOc1c(CN2CCC(NC(=O)c3ccc(-c4cccc(F)c4)nc3)CC2)cccc1OC
(b) COc1ccc2nccc(CN3CCC(NC(=O)c4ccc(-c5cccc(F)c5)nc4)CC3)c2c1
Form field 'greater IC50' accepts a or b ; which applies? API: response body contains the label of the selected item. b
(b: 2.68 nM, a: 1.36 nM)

---

# systemName: human recombinant H-PGDS (Homo sapiens, UniProt O60760)
# assayProtocol: Fluorescence intensity h-PGDS TBA enzyme assay
# Type: biochemical
# setupConditions: Examples up to 622 (and 3a, 3b)
pIC50: −log10 of the molar value.
readoutType: pIC50

Check out these entries, answers already filled in.
{"molecule": "CC(C)(C)OC(=O)NC1(CN2CCC(NC(=O)c3ccc(-c4cccc(F)c4)nc3)CC2)CC1", "systemName": "human recombinant H-PGDS (Homo sapiens, UniProt O60760)", "readoutType": "pIC50", "measured": 8.66}
{"molecule": "O=C(NC1CCN(Cc2ccc3occc3c2)CC1)c1ccc(-c2cccc(F)c2)nc1", "systemName": "human recombinant H-PGDS (Homo sapiens, UniProt O60760)", "readoutType": "pIC50", "measured": 8.71}
{"molecule": "O=C(NC1CCN(CC(F)(F)F)CC1)c1ccc(-c2cc(F)ccc2F)nc1", "systemName": "human recombinant H-PGDS (Homo sapiens, UniProt O60760)", "readoutType": "pIC50", "measured": 8.98}
{"molecule": "O=C(NC1CCN(c2nc3ccccc3nc2NCCO)CC1)c1ccc(-c2cccc(F)c2)nc1", "systemName": "human recombinant H-PGDS (Homo sapiens, UniProt O60760)", "readoutType": "pIC50", "measured": 8.66}
{"molecule": "O=C(NC1CCN(Cc2cn3ccccc3n2)CC1)c1ccc(-c2cccc(F)c2)nc1", "systemName": "human recombinant H-PGDS (Homo sapiens, UniProt O60760)", "readoutType": "pIC50", "measured": 8.63}

(1) O=C(NC1CCN(Cc2cccc(-n3cccn3)n2)CC1)c1ccc(-c2cccc(F)c2)nc1
(2) O=C(N[C@H]1CN(c2cnc3ccccc3n2)C[C@@H]1O)c1ccc(-c2cccc(F)c2)nc1 (relative stereo)
(3) Cc1nn(C)c(Cl)c1CN1CCC(NC(=O)c2ccc(-c3cccc(F)c3)nc2)CC1
(4) CN1CCC(NC(=O)c2ccc(-c3ccc(F)cc3)nc2)CC1
(5) CN(C)CC1(CN2CCC(NC(=O)c3ccc(-c4cccc(F)c4)nc3)CC2)CCCC1
Arrange these molecules by their pIC50, starting with the largest number. Write the labels, ordered according to the request. 3, 1, 2, 5, 4

(I) CC(C)c1ncc2c(n1)CCC(CN1CCC(NC(=O)c3ccc(-c4cccc(F)c4)nc3)CC1)C2 (stereo not shown)
(II) COc1ccc2nccc(CN3CCC(NC(=O)c4ccc(-c5cccc(F)c5)nc4)CC3)c2n1
Returns: the label, I or II , whose recorded pIC50 is the lower number. API: response body contains the label of the selected item. II

(A) CCCC(=O)N1CCC(NC(=O)c2ccc(-c3cccc(OC)c3)nc2)CC1
(B) O=C(NC1CCN(Cc2cnn(-c3ccc(F)cc3)c2)CC1)c1ccc(-c2cccc(F)c2)nc1
Returns: the label, A or B , whose recorded pIC50 is the lower number. API: response body contains the label of the selected item. A
(A: 7.44, B: 8.26)
